measurement-type: IC50 (nM)
Answer in nM, number only, no unit symbol.

Exercise: Hi! What's the reported IC50 for Cc1cc(-c2cc(O)ccc2Cl)cc2nnc(Nc3ccc(OCCN4CCCC4)cc3)nc12 [TG 100572, reference compound] on LCK (Homo sapiens, UniProt P06239)?
Solution: 0.76

* * *

measurement-target: UniProtKB P41595
Sequence (P41595 whole entry): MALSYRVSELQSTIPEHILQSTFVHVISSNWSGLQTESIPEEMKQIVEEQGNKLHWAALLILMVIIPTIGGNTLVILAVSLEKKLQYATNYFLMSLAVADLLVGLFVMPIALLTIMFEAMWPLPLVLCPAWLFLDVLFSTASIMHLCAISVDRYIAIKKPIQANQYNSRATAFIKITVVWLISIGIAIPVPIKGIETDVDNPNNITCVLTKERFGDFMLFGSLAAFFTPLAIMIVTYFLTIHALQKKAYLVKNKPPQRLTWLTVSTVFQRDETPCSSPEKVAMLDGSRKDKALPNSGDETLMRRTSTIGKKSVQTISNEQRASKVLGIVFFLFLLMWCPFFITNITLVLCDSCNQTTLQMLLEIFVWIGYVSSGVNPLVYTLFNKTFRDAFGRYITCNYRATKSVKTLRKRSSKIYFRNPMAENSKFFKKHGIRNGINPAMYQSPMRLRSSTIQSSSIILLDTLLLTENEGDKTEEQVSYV
procedure-details: cell-based
measurement-parameters: read-out: Antagonist Reference Compound IC50
measurement-type: pIC50
Interpret pIC50 as the negative base-10 log of the concentration measured in mol/L.

Exercise: What value of measured pIC50 is listed for CC(C)c1cc(-c2ccc(F)c3ccccc23)nc(N)n1 [RS-127445, reference compound] ?
Solution: 9.01
